Can you tell me inhibition at 3 µM for the items I'm about to list?
Target: hERG (KCNH2) (Homo sapiens, UniProt Q12809)
Sequence (Q12809 whole entry): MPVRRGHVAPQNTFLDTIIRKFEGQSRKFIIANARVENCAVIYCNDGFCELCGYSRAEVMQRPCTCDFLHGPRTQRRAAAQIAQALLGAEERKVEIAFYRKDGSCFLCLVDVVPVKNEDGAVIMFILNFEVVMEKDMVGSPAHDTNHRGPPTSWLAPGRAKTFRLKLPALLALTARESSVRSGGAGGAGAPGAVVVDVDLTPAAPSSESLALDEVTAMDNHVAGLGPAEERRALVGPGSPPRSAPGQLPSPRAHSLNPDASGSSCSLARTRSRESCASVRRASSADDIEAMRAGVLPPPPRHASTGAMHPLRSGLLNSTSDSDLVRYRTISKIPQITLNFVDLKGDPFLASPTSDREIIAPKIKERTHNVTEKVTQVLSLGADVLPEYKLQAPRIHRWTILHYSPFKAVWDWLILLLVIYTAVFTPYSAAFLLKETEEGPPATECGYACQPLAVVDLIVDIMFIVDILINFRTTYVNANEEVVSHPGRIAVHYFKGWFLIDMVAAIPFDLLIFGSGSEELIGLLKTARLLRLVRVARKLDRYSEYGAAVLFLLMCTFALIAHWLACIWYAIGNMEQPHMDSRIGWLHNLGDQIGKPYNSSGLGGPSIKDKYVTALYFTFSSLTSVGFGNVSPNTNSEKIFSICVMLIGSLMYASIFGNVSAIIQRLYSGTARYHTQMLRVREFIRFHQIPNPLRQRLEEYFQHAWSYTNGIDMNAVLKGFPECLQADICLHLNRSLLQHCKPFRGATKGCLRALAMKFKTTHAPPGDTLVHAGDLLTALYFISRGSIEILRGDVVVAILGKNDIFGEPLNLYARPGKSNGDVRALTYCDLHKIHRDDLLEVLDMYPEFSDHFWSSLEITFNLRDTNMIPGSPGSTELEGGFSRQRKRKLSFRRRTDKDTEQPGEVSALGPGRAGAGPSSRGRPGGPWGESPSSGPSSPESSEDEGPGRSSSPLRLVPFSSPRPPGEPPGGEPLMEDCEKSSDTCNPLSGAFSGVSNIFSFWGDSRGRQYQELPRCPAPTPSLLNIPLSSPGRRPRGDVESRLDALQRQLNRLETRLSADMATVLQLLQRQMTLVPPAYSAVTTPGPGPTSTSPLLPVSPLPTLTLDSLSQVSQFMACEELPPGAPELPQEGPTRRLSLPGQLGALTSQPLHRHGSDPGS
Assay: Inhibition of hERG expressed in HEK293 cells at 3 uM by manual patch clamp assay relative to control
Assay type: toxicity, cell-based
Settings: HEK293 cells expressing hERG
Returns: string containing the numeric result and its unit.

Q. Dear colleague, I am looking for the recorded inhibition at 3 µM of the following compound: Cn1c(=O)n(C2CCC(=O)NC2=O)c2cccc(C#CCOC3CCN(CC(=O)N4CCC5(CC4)Cc4cc(NC(=O)c6cnn7cccnc67)c(N6CCC(CO)CC6)cc4O5)CC3)c21 (stereo not given)
A. 8%

Q. Entry Cn1c(=O)n(C2CCC(=O)NC2=O)c2cccc(C#CCN3CCN(CC(=O)N4CCC5(CC4)Cc4cc(NC(=O)c6cnn7cccnc67)c(N6CCC(CO)CC6)cc4O5)CC3)c21 (stereo not given) has what inhibition at 3 µM?
A. 18%

Q. Return reported inhibition at 3 µM; argument: Cn1c(=O)n(C2CCC(=O)NC2=O)c2cccc(C#CCO[C@H]3CC[C@H](CN4CCC5(CC4)Cc4cc(NC(=O)c6cnn7cccnc67)c(N6CCC(CO)CC6)cc4C5)CC3)c21 (stereo not given in full)
A. 46%

Q. Name the reported inhibition at 3 µM value associated with the compound Cn1c(=O)n(C2CCC(=O)NC2=O)c2cccc(C#CCO[C@H]3CC[C@](F)(CN4CCC5(CC4)Cc4cc(NC(=O)c6cnn7cccnc67)c(N6CCC(CO)CC6)cc4O5)CC3)c21 (stereo not given in full)
A. 8%

Q. Quick one: inhibition at 3 µM for Cn1c(=O)n(C2CCC(=O)NC2=O)c2cccc(C#CCO[C@H]3CC[C@H](CN4CCC5(CC4)Cc4cc(NC(=O)c6cnn7cc(C#N)cnc67)c(N6CCC(CO)CC6)cc4O5)CC3)c21 (stereo not given in full) ?
A. 29%

---

Assay: Metabolic stability in human liver microsome assessed as half life at 1 uM measured up to 60 mins in presence of NADPH by LC-MS/MS analysis
Type: ADME
Details: liver microsomes
I'd appreciate it if you could supply log10 of half-life at 1 µM values for the items below.
All values: log10 half-life at 1 µM [min].

Q. What value of measured log10 of half-life at 1 µM is listed for Cn1c(=O)n(C2CCC(=O)NC2=O)c2cccc(C#CCOC3CCN(CC(=O)N4CCC5(CC4)Cc4cc(NC(=O)c6cnn7cccnc67)c(N6CCC(CO)CC6)cc4O5)CC3)c21 (stereo not given) ?
A. 0.95

Q. Consider the compound shown here: Cc1cc(-c2nc(C(=O)Nc3cc4c(cc3N3CCC(CO)CC3)OC3(CCN(C[C@H]5CC[C@H](OCC#Cc6cccc7c6n(C)c(=O)n7C6CCC(=O)NC6=O)CC5)CC3)C4)co2)ccn1 (stereo not given in full) What is its recorded log10 of half-life at 1 µM?
A. 1.84

Q. Need log10 of half-life at 1 µM of Cn1c(=O)n(C2CCC(=O)NC2=O)c2cccc(C#CCO[C@H]3CC[C@H](C(=O)N4CCC5(CC4)Cc4cc(NC(=O)c6cnn7cccnc67)c(N6CCC(CO)CC6)cc4O5)CC3)c21 (stereo not given in full) , thanks.
A. 1.59

Q. Which log10 of half-life at 1 µM value belongs to Cn1c(=O)n(C2CCC(=O)NC2=O)c2cccc(C#CCOC3CCN(C(=O)CN4CCC5(CC4)Cc4cc(NC(=O)c6cnn7cccnc67)c(N6CCC(CO)CC6)cc4O5)CC3)c21 (stereo not given) ?
A. 0.60

Q. Fill in the blank: the reported log10 of half-life at 1 µM of Cn1c(=O)n(C2CCC(=O)NC2=O)c2cccc(CN3CCC4(CC3)CN(CCN3CCC5(CC3)Cc3cc(NC(=O)c6cnn7cccnc67)c(N6CCC(CO)CC6)cc3O5)C4)c21 (stereo not given) is ____.
A. 1.70

Q. Requested read-out: log10 of half-life at 1 µM. Entry: Cn1c(=O)n(C2CCC(=O)NC2=O)c2cccc(C#CCO[C@H]3CC[C@@H](CN4CCC5(Cc6cc(NC(=O)c7cnn8cccnc78)c(N7CCC(CO)CC7)cc6O5)C4)CC3)c21 (stereo not given in full)
A. 1.49

Q. Look up log10 of half-life at 1 µM: Cn1c(=O)n(C2CCC(=O)NC2=O)c2cccc(C#CCOC3CCN(CCN4CCC5(CC4)Cc4cc(NC(=O)c6cnn7cccnc67)c(N6CCC(CO)CC6)cc4O5)CC3)c21 (stereo not given)
A. 1.36
